Data origin, for the record: the supplement of paper PMC7877785

Documented self-splicing fitness (ln) across a set of sequences
Experiment: self-splicing fitness, log relative to wild type (ln ratio); higher = more splicing; Tetrahymena group I intron in knt gene, E. coli kanamycin selection, DiMSum; sequences stand for … in CUCUCU…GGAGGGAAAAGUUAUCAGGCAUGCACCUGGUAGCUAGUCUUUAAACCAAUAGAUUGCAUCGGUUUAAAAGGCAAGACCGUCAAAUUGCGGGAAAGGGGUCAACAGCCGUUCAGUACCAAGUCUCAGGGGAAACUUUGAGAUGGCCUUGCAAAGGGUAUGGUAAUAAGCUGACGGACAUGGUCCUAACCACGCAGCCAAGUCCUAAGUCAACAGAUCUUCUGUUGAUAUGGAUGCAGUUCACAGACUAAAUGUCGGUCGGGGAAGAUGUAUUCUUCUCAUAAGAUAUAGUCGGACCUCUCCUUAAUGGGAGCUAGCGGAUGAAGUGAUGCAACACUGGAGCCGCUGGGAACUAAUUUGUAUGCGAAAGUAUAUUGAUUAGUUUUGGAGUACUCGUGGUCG;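 also: selection with 25 µg/mL kanamycin versus none on LB agar overnight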
Details: 37 °C
Answer using only a numeral; do not append any unit.

Example sequences with recorded self-splicing fitness (ln):
>>> test_result("GAUCAGCAAUAUUACGUGUG")
-0.101
>>> test_result("UGUCAGCAAUAUUACGGAGG")
-0.948

Report self-splicing fitness (ln) for UCCAAGCAAUAUUACGUCGG please. -0.182

What do you get for AUUUAGCAAUAUUACGCCCG ? -1.15

Also AUCAAGCAAUAUUACGUAGA ? -1.66

And what about the sequence CUAUAGCAAUAUUACGCGUC ? -2.71

Also GCAGAGCAAUAUUACGAAUC ? -1.15

Record: UUAAAGCAAUAUUACGUGGG -2.03

// repeat for CAGUAGCAAUAUUACGAGUG and report -0.603

----------
Assay: self-splicing fitness, log relative to wild type (ln ratio); higher = more splicing; Tetrahymena group I intron in knt gene, E. coli kanamycin selection, DiMSum; sequences stand for … in CUCUCU…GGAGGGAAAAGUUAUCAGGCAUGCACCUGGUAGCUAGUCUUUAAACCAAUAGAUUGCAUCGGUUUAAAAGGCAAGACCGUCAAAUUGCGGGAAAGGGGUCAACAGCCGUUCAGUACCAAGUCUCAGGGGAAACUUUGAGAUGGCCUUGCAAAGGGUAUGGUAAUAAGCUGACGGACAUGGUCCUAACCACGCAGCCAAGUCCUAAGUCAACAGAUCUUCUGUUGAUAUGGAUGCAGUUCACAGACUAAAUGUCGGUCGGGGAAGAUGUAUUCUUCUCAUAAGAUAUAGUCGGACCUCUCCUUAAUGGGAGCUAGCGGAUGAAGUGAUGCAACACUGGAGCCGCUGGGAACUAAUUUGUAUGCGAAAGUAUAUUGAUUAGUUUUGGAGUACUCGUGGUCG
Settings: 30 °C
MEASURED PROPERTY: self-splicing fitness (ln)
When you answer, write just the number.

>>> test_result("UCUGAGCAAUAUUACGUGGA")
-2.95

# input sequence: ACUUAGCAAUAUUACGGUAU ; wanted: its self-splicing fitness (ln) -3.18

Please give the result for GGAAAGCAAUAUUACGGAGA too. -1.97

Note, next up: AACUAGCAAUAUUACGGGAA -1.5

Then this sequence: CUGAAGCAAUAUUACGAGUC -3.88

Next sequence up: GACAAGCAAUAUUACGAGAG -3.18

Try this sequence next: ACUAAGCAAUAUUACGGUUG -3.25

Entry to check: CCACAGCAAUAUUACGUGCC -1.6

Same thing, different sequence: CGACAGCAAUAUUACGGCUC -2.5

Again, but for CAUAAGCAAUAUUACGUUAG -1.13

Again, but for GCCUAGCAAUAUUACGUUAG -4.33

----------
Test: self-splicing fitness, log relative to wild type (ln ratio); higher = more splicing; Tetrahymena group I intron in knt gene, E. coli kanamycin selection, DiMSum; sequences stand for … in CUCUCU…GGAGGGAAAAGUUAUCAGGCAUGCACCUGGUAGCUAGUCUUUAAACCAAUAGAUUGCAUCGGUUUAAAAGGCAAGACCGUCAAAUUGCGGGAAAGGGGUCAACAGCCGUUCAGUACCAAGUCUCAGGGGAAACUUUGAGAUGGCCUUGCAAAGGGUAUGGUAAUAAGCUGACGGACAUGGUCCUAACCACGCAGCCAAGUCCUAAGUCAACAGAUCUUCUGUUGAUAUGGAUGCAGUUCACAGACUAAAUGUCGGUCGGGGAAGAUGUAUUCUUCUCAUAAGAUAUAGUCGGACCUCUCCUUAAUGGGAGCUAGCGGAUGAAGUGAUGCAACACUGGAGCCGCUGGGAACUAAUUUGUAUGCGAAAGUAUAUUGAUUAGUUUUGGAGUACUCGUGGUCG
Details: 37 °C
Consider the following sequences and their measured self-splicing fitness (ln) readings.

Recorded self-splicing fitness (ln), per entry:
>>> test_result("AGGAAGCAAUAUUACGUAGU")
-2.63
>>> test_result("AGCGAGCAAUAUUACGGAAG")
-2.68
>>> test_result("AACGAGCAAUAUUACGGGGG")
-3.01

Please report the recorded self-splicing fitness (ln) for AUCAAGCAAUAUUACGCUUU . -2.31

Same again, this time with CGCCAGCAAUAUUACGUCAG 0.203

Another sequence: UGGCAGCAAUAUUACGCGAA -0.139

// same read-out, input: GGUAAGCAAUAUUACGCGAA -1.15

// query: GCCCAGCAAUAUUACGAAAG -2.07

Let us now turn to UAGGAGCAAUAUUACGGGCA -2.63

Same for UUACAGCAAUAUUACGUGCG -0.0854

Same question for GCUCAGCAAUAUUACGUCAA please. -1.77

What about GGGAAGCAAUAUUACGACUG ? -0.457

Thanks! And GUUUAGCAAUAUUACGGUAA ? -1.24

Check AUCCAGCAAUAUUACGUAUU too. -1.23

Repeat for the following sequence: CGAGAGCAAUAUUACGUGGU -3.2

// repeat for UGCUAGCAAUAUUACGCAAG and report -3.11

----------
Let's look at some sequences and their measured self-splicing fitness (ln).
Assay: self-splicing fitness, log relative to wild type (ln ratio); higher = more splicing; Tetrahymena group I intron in knt gene, E. coli kanamycin selection, DiMSum; sequences stand for … in CUCUCU…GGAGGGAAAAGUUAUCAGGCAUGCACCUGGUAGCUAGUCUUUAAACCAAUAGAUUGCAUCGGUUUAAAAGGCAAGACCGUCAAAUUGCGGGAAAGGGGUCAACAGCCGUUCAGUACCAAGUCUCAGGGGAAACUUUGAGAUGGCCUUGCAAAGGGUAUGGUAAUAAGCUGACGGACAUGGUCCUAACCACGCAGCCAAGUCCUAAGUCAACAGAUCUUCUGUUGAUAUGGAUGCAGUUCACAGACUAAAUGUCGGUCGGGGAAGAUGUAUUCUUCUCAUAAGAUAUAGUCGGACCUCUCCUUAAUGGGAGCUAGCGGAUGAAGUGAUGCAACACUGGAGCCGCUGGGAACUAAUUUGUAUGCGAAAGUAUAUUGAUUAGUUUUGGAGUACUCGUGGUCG
Conditions: 30 °C
Number only, please.

Please review the entries below; each comes with its answer.
>>> test_result("GUAGAGCAAUAUUACGUCAG")
-3.1
>>> test_result("AAGUAGCAAUAUUACGUACA")
-0.476
>>> test_result("UCGCAGCAAUAUUACGAGGU")
-3.14
>>> test_result("GACAAGCAAUAUUACGUGCA")
-0.912
>>> test_result("AAACAGCAAUAUUACGCGGA")
-2.23
>>> test_result("UAUCAGCAAUAUUACGUAAG")
-2.16

self-splicing fitness (ln) lookup needed for CUGAAGCAAUAUUACGGCGA , thanks. -3.53

// same read-out, input: CAACAGCAAUAUUACGCCGA -2.35

----------
Assay: self-splicing fitness, log relative to wild type (ln ratio); higher = more splicing; Tetrahymena group I intron in knt gene, E. coli kanamycin selection, DiMSum; sequences stand for … in CUCUCU…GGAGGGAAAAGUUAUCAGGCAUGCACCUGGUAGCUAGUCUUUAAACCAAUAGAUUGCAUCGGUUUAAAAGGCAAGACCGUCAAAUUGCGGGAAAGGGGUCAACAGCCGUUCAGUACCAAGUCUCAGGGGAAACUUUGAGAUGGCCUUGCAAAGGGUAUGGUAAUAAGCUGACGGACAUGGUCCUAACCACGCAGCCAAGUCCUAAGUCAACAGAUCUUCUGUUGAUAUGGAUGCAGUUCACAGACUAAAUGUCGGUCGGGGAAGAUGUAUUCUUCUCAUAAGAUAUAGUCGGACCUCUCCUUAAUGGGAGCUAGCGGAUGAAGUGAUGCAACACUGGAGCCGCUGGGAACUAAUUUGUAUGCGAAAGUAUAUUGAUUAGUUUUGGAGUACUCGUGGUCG
Conditions: 30 °C
MEASURED PROPERTY: self-splicing fitness (ln)
Give your answer as a number; write no unit.

>>> test_result("UCUCAGCAAUAUUACGGGGA")
-2.92
>>> test_result("ACUAAGCAAUAUUACGUCUA")
-1.45
>>> test_result("CGCGAGCAAUAUUACGUUAC")
-4.07
>>> test_result("GCGCAGCAAUAUUACGUCAA")
-2.46

Field: next sequence
Recorded self-splicing fitness (ln) of GAUUAGCAAUAUUACGAACA , please. -0.848
